Source of measurements: the supplement of paper PMC7600603

Tested on: DLD1 NRF2-WT
Experiment: drug sensitivity score (DSS) cytotoxicity (DSS score); higher = more toxic; extreme values may be limits of the assay
Settings: 72 h; CellTox Green cytotoxicity
recorded metric: drug sensitivity score
The answer should be written as a number, with no unit following it.

Would you please look over these solved cases?
CCS(=O)(=O)Nc1ccc(Oc2ccc(F)cc2F)c(-c2cn(C)c(=O)c3[nH]ccc23)c1 [Mivebresib] :: 0
Cn1cc(-c2[nH]c3cc(NC(=O)[C@H](N)C4CCCCC4)cc4c3c2C=NNC4=O)cn1 :: 1
Cc1cc(Nc2cc(N3CCN(C)CC3)nc(/C=C/c3ccccc3)n2)n[nH]1 [ENMD-2076] :: 1.4
COc1cc(C(=O)O)ccc1NC(=O)[C@@H]1N[C@@H](CC(C)(C)C)[C@](C#N)(c2ccc(Cl)cc2F)[C@H]1c1cccc(Cl)c1F [Idasanutlin] :: 0
CC(=O)c1c(C)c2cnc(Nc3ccc(N4CCNCC4)cn3)nc2n(C2CCCC2)c1=O [Palbociclib] :: 0.2
Cc1c(N)nc([C@H](CC(N)=O)NC[C@H](N)C(N)=O)nc1C(=O)N[C@H](C(=O)N[C@H](C)[C@@H](O)[C@H](C)C(=O)N[C@H](C(=O)NCCc1nc(-c2nc(C(=O)NCCC[S+](C)C)cs2)cs1)[C@@H](C)O)[C@@H](O[C@@H]1O[C@@H](CO)[C@@H](O)[C@H](O)[C@@H]1O[C@H]1O[C@H](CO)[C@@H](O)[C@H](OC(N)=O)[C@@H]1O)c1c[nH]cn1 [Bleomycin] :: 0

Reading of drug sensitivity score for CNCc1ccc(-c2[nH]c3cc(F)cc4c3c2CCNC4=O)cc1 [Rucaparib] with DLD1 NRF2-WT: 0

Reading of drug sensitivity score for CC[C@H](C)C(=O)O[C@H]1C[C@H](O)C=C2C=C[C@H](C)[C@H](CC[C@@H](O)C[C@@H](O)CC(=O)O)[C@H]21 [Pravastatin] with DLD1 NRF2-WT: 0

Reading of drug sensitivity score for "CNC(=O)c1ccc(C)c(-n2c(C)cc(OCc3ccc(F)cc3F)c(Br)c2=O)c1" with DLD1 NRF2-WT: 0

Reading of drug sensitivity score for O=C(Nc1nc2cccc(-c3ccc(CN4CCS(=O)(=O)CC4)cc3)n2n1)C1CC1 [Filgotinib] with DLD1 NRF2-WT: 0

Reading of drug sensitivity score for COc1cc2nccc(Oc3ccc(NC(=O)C4(C(=O)Nc5ccc(F)cc5)CC4)cc3)c2cc1OC [Cabozantinib] with DLD1 NRF2-WT: 0

----------
Tested on: DLD1 NRF2-WT
Settings: 72 h; CellTiter-Glo viability
Hi! Just check whether EC50 viability is below 100 nM. Below gives rule met, equal or above gives rule not met.

Here are 3 compounds together with their reported answers.
COC(=O)N[C@@H](C)CNc1nccc(-c2cn(C(C)C)nc2-c2cc(Cl)cc(NS(C)(=O)=O)c2F)n1 :: rule not met
Cc1nc(-c2cn3c(n2)-c2ccc(-c4cnn(C(C)(C)C(N)=O)c4)cc2OCC3)n(C(C)C)n1 :: rule met
CCCc1cc(C)[nH]c(=O)c1CNC(=O)c1cc(-c2ccnc(N3CCN(C)CC3)c2)cc2c1cnn2C(C)C :: rule not met

is_below(EC50 viability, 100 nM) for "CC[C@]12C=CCN3CC[C@@]4(c5cc([C@@]6(C(=O)OC)C[C@@H]7C[C@@H](C(C)(F)F)CN(Cc8c6[nH]c6ccccc86)C7)c(OC)cc5N(C)[C@H]4[C@@](O)(C(=O)OC)[C@@H]1OC(C)=O)[C@@H]32" ?
rule not met

is_below(EC50 viability, 100 nM) for "NC1(c2ccc(-c3nc4ccn5c(=O)[nH]nc5c4cc3-c3ccccc3)cc2)CCC1" ?
rule met

is_below(EC50 viability, 100 nM) for "CNC(=O)c1cccc2cc(Oc3ccnc4cc(OCC5(N)CC5)c(OC)cc34)ccc12" ?
rule not met

is_below(EC50 viability, 100 nM) for "C[C@H]1O[C@@H](O[C@H]2[C@@H](O)C[C@H](O[C@H]3[C@@H](O)C[C@H](O[C@H]4CC[C@@]5(C)[C@H](CC[C@@H]6[C@@H]5C[C@@H](O)[C@]5(C)[C@@H](C7=CC(=O)OC7)CC[C@]65O)C4)O[C@@H]3C)O[C@@H]2C)C[C@H](O)[C@@H]1O" ?
rule met

is_below(EC50 viability, 100 nM) for "O=C(O)CC[C@H]1CC[C@@](c2cc(F)ccc2F)(S(=O)(=O)c2ccc(Cl)cc2)CC1" ?
rule not met

----------
Tested on: DLD1 NRF2-WT
Assay: drug sensitivity score (DSS) viability (DSS score); higher = more sensitive; extreme values may be limits of the assay
Settings: 72 h; CellTiter-Glo viability
Overview of reported drug sensitivity score across a group of compounds:
The answer should be written as a number, with no unit following it.

Would you please look over these solved cases?
CNC(=O)c1cc(Oc2ccc(NC(=O)Nc3ccc(Cl)c(C(F)(F)F)c3)cc2)ccn1 :: 1.2
C=CC(=O)Nc1cccc(Nc2nc(Nc3ccc(N4CCN(C(C)=O)CC4)cc3OC)ncc2C(F)(F)F)c1 :: 5.3
Cc1c(N)nc([C@H](CC(N)=O)NC[C@H](N)C(N)=O)nc1C(=O)N[C@H](C(=O)N[C@H](C)[C@@H](O)[C@H](C)C(=O)N[C@H](C(=O)NCCc1nc(-c2nc(C(=O)NCCC[S+](C)C)cs2)cs1)[C@@H](C)O)[C@@H](O[C@@H]1O[C@@H](CO)[C@@H](O)[C@H](O)[C@@H]1O[C@H]1O[C@H](CO)[C@@H](O)[C@H](OC(N)=O)[C@@H]1O)c1c[nH]cn1 :: 0.4

Turning now to a further compound:
Per the record, "CCn1c(-c2nonc2N)nc2cnc(Oc3cccc(NC(=O)c4ccc(OCCN5CCOCC5)cc4)c3)cc21" has drug sensitivity score of 5.4

----------
Overview of reported TC50 cytotoxicity across a group of compounds:
Tested on: DLD1 NRF2-GOF
Test: TC50 cytotoxicity; higher = less toxic
Details: 72 h; CellTox Green cytotoxicity

Would you please look over these solved cases?
Sc1ncnc2nc[nH]c12 :: > 10 µM
Nc1nc(Cl)nc2c1ncn2[C@H]1C[C@H](O)[C@@H](CO)O1 :: > 1 µM
CC(C)C[C@@H](C(=O)N[C@H](C(=O)OC1CCCC1)c1ccccc1)[C@H](O)C(=O)NO :: > 10 µM
CCN(CC)CCNC(=O)c1c(C)[nH]c(/C=C2\C(=O)Nc3ccc(-c4csc(-c5ccccc5)n4)cc32)c1C :: > 10 µM

Turning now to a further compound:
Per the record, "Cn1ncc(Cl)c1-c1cc(C(=O)N[C@H](CN)Cc2cccc(F)c2)sc1Cl" has TC50 cytotoxicity of > 1 µM

----------
Tested on: DLD1 NRF2-WT
Experiment: drug sensitivity score (DSS) cytotoxicity (DSS score); higher = more toxic; extreme values may be limits of the assay
Details: 72 h; CellTox Green cytotoxicity
recorded metric: drug sensitivity score
The answer should be written as a number, with no unit following it.

Would you please look over these solved cases?
Clc1ccc(C(c2ccccc2Cl)C(Cl)Cl)cc1 (stereo unspecified) [Mitotane] :: 0
CCCCCOC(=O)Nc1nc(=O)n([C@@H]2O[C@H](C)[C@@H](O)[C@H]2O)cc1F [Capecitabine] :: 0
CC(=O)[C@]1(O)Cc2c(O)c3c(c(O)c2[C@@H](O[C@H]2C[C@H](N)[C@H](O)[C@H](C)O2)C1)C(=O)c1ccccc1C3=O [Idarubicin] :: 4.8
COc1ccc(Cn2ccc3ccc(C(=O)NO)cc32)cc1 :: 0

Per the record, C=CC(=O)Nc1cccc(Oc2nc(Nc3ccc(N4CCN(C)CC4)cc3)nc3ccsc23)c1 [Olmutinib] has drug sensitivity score of 0

----------
Tested on: DLD1 NRF2-WT
Conditions: 72 h; CellTiter-Glo viability
Hi! Just check whether EC50 viability is below 900 nM. Below gives Met, equal or above gives Not met.

Here are 5 molecules together with their reported answers.
Nc1nc(Cl)nc2c1ncn2[C@H]1C[C@H](O)[C@@H](CO)O1 [Cladribine] :: Met
C=C1C[C@@H]2[C@H](CC[C@]3(C)C(=O)CC[C@@H]23)[C@@]2(C)C=CC(=O)C=C12 [Exemestane] :: Not met
O=c1[nH]c(=O)n([C@H]2C[C@H](O)[C@@H](CO)O2)cc1F [Floxuridine] :: Met
COc1cccc2c1C(=O)c1c(O)c3c(c(O)c1C2=O)C[C@@](O)(/C(CO)=N/NC(=O)CCCCCN1C(=O)C=CC1=O)C[C@@H]3O[C@H]1C[C@H](N)[C@H](O)[C@H](C)O1 [Aldoxorubicin] :: Met
CC(C)(C)C[C@@H]1N[C@@H](C(=O)N[C@H]2CC[C@H](O)CC2)[C@H](c2cccc(Cl)c2F)[C@]12C(=O)Nc1cc(Cl)ccc12 :: Not met

Would you kindly look at the next entry?
is_below(EC50 viability, 900 nM) for CCC(C)n1ncn(-c2ccc(N3CCN(c4ccc(OCC5COC(Cn6cncn6)(c6ccc(Cl)cc6Cl)O5)cc4)CC3)cc2)c1=O (configuration not stated) [Itraconazole] ?
Not met
